# System: M14
# Method: NCI tumour cell line growth inhibition, 48 h
The source made the active and inactive calls. Rule as the data show it: active = GI50 up to about 1.1 µM and inactive = higher.
Entry note: the call must match one of active, inactive

Solved cases (10 shown):
1. NCCC(N)C(=O)O (configuration not stated) : inactive
2. C=CCNC1=C2C[C@@H](C)C[C@H](OC)[C@H](O)[C@@H](C)/C=C(\C)[C@H](OC(N)=O)[C@@H](OC)/C=C\C=C(/C)C(=O)NC(=CC1=O)C2=O : active
3. Cc1nc(-n2[nH]c(C)c(CCO)c2=O)[nH]c(=O)c1CCO : inactive
4. CCOC(=O)c1c(-c2cccc3ccccc23)c(C#N)c(=S)n(C2OC(COC(C)=O)C(OC(C)=O)C(OC(C)=O)C2OC(C)=O)c1C (configuration not stated) : inactive
5. S=C1NC2=C(COC/C2=C\c2ccccc2Cl)C(c2ccccc2Cl)N1 (configuration not stated) : inactive
6. COc1ccc(CCc2cc(OC)cc(OC)c2)cc1 : inactive
7. COc1cc(-c2cc(=O)c3c(OC)c(OC)c(OC)c(OC)c3o2)cc(OC)c1OC : inactive
8. O=C1Sc2cc3ccccc3cc2C(=O)Sc2ccc(Br)cc21 : inactive
9. N#Cc1sc2nc3c(c(-c4ccccc4)c2c1N)CCCC3 : inactive
10. COc1ccc2c(c1)N(C(C)=O)CN1C(=O)CCC21 (configuration not stated) : inactive

Outcome? "Oc1ccccc1-c1cnnc(-c2ccccc2O)c1" inactive

// repeat for "CCOC(=O)c1csc(NC(=O)CCCC#N)n1" and report inactive
